molecular target: P-gp (Sus scrofa, UniProt K7GMM7); experiment: in vitro; details: female, Swiss noble, pig, pH 7.4, with verapamil hydrochloride 100 µM in the donor compartment
Sequence (K7GMM7 1-1248): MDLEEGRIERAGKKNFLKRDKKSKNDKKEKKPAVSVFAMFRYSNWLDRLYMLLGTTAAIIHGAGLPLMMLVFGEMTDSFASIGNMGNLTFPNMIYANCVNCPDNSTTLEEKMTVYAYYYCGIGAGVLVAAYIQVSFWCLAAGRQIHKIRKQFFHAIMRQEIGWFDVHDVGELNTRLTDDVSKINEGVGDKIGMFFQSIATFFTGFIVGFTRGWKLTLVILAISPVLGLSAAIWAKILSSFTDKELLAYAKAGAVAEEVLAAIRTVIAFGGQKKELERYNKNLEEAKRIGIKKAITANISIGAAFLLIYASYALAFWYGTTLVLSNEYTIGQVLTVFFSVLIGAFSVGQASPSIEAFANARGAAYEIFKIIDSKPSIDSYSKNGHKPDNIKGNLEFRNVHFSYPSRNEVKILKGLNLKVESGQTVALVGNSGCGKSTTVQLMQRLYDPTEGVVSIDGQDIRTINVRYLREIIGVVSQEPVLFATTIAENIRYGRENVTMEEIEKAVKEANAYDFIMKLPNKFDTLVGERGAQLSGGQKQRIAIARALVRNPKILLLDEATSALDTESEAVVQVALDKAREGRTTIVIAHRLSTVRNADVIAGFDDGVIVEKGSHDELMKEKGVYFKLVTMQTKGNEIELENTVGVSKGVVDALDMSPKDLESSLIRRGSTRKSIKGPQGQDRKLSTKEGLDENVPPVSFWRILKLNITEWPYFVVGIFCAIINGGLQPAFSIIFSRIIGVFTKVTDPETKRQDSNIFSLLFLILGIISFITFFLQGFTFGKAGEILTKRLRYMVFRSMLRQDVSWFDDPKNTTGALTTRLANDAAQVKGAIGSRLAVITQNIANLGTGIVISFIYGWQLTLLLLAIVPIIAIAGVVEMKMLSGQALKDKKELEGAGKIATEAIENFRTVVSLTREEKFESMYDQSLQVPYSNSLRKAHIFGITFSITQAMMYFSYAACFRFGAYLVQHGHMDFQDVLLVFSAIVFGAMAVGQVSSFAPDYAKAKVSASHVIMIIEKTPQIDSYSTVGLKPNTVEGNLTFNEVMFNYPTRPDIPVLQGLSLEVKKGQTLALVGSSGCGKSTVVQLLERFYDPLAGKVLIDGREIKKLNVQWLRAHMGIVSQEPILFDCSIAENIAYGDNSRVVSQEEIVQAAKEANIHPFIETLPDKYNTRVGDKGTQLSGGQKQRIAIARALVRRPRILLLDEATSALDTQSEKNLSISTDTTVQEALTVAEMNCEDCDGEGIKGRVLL
resultType: Papp at 120 min, 100 µM (×10⁻⁶ cm/s)
Dear colleague, please return just the value in ×10⁻⁶ cm/s, with no unit written.

Papp at 120 min, 100 µM of CNC(=C[N+](=O)[O-])NCCSCc1ccc(CN(C)C)o1 , assay on P-gp (Sus scrofa, UniProt K7GMM7), is 4.92

====

system: CYP3A4; test: in vitro; conditions: female, Swiss noble, pig, pH 7.4, Papp,pig Ex Vivo (−CLOTR), jejunum, 100 µM in KBR, without clotrimazole
resultType: Papp at 120 min, 100 µM (×10⁻⁶ cm/s)
Dear colleague, please return just the value in ×10⁻⁶ cm/s, with no unit written.

For reference, reported Papp at 120 min, 100 µM for Cc1ncc2n1-c1ccc(Cl)cc1C(c1ccccc1F)=NC2 stands at 0.183
